The reported numbers originate from paper PMC11187542.

- study-target: SMYD3 (apo, native) (Homo sapiens, UniProt Q9H7B4)
- Construct: Full length recombinant SMYD3 was produced as previously reported; made in house; host or cells: E. coli BL21(DE3), in some cases Rosetta 2
- Sequence (Q9H7B4 whole entry): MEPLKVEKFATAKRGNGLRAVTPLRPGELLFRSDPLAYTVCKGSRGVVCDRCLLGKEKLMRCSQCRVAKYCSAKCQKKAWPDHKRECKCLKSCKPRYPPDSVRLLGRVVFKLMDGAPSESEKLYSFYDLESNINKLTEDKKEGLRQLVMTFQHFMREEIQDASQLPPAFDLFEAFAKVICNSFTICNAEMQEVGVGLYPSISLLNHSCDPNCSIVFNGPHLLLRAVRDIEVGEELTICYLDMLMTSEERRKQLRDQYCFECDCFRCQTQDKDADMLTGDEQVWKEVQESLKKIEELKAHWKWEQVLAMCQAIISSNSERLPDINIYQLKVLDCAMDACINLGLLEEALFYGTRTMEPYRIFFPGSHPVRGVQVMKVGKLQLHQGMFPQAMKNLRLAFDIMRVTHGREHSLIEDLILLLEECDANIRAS
- method: GCI biosensor kinetic screening, apo SMYD3 surface
- Assay type: binding
- condition-description: initial kinetic screening, fragment 250 μM, 15 °C, 1:1 model
property-measured: kd (s⁻¹)

// solved cases for kd follow
>>> df
                            compound  unit_annotation  measured
0                     N#Cc1cccc(O)c1              s⁻¹       1.3
1                Nc1nnc(-c2cccnc2)s1              s⁻¹      2.04
2  O=c1cc(C(F)(F)F)c2cc(Cl)c(O)cc2o1              s⁻¹      0.96
3                   N#Cc1cc(Br)ccc1O              s⁻¹      0.93
4                  NC(=O)c1cccc(O)c1              s⁻¹      0.93
5              Nc1ccc(S(N)(=O)=O)cc1              s⁻¹      0.68
6                  Nc1nc2cccnc2cc1Br              s⁻¹      0.70

a. Cn1cnc(S(N)(=O)=O)c1
b. COc1ccccc1C1OC(=O)CC1C(=O)O (stereo not shown)
c. O=C(O)c1ccnc2ccccc12
stdin: Order the entries by their reported kd, beginning at the minimum. Rank the items, then write their labels in that order.
stdout: a, c, b
(a: 0.52 s⁻¹, c: 1.09 s⁻¹, b: 1.61 s⁻¹)
